Target: Protein cereblon/Tyrosine-protein kinase BTK (Homo sapiens, UniProt Q06187+Q96SW2)
Sequence (Q06187 2-659 limits assumed): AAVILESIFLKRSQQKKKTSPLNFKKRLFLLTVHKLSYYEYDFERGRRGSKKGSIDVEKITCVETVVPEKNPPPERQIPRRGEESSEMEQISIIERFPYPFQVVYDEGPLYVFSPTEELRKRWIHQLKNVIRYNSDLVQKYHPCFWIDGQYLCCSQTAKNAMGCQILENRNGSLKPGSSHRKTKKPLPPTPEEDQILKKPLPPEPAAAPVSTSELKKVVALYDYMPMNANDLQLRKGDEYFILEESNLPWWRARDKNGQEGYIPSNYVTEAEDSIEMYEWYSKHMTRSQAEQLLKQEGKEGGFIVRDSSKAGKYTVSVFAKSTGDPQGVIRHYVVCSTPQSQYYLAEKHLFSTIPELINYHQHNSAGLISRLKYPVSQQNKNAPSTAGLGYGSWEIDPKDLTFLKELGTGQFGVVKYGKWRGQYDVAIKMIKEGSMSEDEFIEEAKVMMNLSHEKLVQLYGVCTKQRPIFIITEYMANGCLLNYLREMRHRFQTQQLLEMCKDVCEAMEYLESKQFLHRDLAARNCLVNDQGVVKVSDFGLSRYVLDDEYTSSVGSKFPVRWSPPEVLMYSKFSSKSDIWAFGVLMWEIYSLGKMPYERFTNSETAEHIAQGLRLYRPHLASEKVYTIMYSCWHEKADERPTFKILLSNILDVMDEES
Sequence (Q96SW2 whole entry partner): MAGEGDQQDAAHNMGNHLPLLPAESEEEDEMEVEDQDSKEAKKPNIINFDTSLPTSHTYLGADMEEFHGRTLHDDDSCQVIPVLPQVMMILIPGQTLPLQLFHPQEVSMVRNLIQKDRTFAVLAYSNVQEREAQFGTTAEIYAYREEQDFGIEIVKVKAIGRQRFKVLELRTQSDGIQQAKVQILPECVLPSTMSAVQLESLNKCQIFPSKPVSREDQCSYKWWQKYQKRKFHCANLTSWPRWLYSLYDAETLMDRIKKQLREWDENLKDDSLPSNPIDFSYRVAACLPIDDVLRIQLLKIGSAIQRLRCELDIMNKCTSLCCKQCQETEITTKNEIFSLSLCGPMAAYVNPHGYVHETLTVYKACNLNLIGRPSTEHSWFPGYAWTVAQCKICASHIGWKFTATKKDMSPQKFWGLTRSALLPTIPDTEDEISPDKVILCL
Assay: Protac activity at BTK/CRBN in human JeKo-1 cells assessed as maximal BTK degradation measured after 1 hr by Western blot analysis relative to control
Type: cell-based
RESULT TYPE: %max (%)
Numbers only, in %.

COMPOUND: O=C1CCC(N2C(=O)c3cccc(NCCOCCOCCOCCOCCOCCNC(=O)N[C@H]4CC[C@@H](Nc5ncnc6[nH]cc(C(=O)c7ccc(Oc8ccccc8)cc7Cl)c56)CC4)c3C2=O)C(=O)N1 (stereo partly drawn)
RESULT UNIT: %
%max: 93
//
COMPOUND: O=C(CNc1ncnc2[nH]cc(C(=O)c3ccc(Oc4ccccc4)cc3Cl)c12)NCCOCCOCCOCCOCCOCCNc1cccc2c1C(=O)N(C1CCC(=O)NC1=O)C2=O (stereo not drawn)
RESULT UNIT: %
%max: 72.4

Continue with the compound presented below.
Prompt: // Input: O=C(CNc1ncnc2[nH]cc(C(=O)c3ccc(Oc4ccccc4)cc3Cl)c12)NCCOCCOCCOCCNc1cccc2c1C(=O)N(C1CCC(=O)NC1=O)C2=O (stereo not drawn) . Output its %max only.
Completion: 67.1

---

Can you tell me inhibition for the items I'm about to list?
Biological target: Tyrosine-protein kinase BTK (Homo sapiens)
Sequence (Q06187 whole entry, the tested form may be a part): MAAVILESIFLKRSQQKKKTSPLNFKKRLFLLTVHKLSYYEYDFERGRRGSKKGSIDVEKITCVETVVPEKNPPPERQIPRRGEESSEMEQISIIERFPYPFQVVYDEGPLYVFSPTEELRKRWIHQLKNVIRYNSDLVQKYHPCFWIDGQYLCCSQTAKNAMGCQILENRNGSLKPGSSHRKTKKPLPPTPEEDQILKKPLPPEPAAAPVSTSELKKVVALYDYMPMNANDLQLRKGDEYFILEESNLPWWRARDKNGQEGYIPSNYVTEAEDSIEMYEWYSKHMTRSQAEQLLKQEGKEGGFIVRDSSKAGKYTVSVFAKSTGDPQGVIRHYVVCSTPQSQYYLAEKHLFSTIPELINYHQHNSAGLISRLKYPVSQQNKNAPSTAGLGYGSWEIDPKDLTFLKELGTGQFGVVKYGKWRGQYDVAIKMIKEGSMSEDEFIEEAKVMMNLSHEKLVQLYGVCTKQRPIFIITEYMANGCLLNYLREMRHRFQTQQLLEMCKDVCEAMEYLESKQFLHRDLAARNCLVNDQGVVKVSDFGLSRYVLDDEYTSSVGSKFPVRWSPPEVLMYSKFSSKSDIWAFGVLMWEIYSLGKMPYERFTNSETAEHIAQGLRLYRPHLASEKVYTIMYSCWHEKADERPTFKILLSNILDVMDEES
Experiment: Inhibition of full length N-terminal GST fusion tagged human BTK expressed in baculovirus expression system at 50 nM using FAM-P2 peptide solution as substrate incubated for 10 mins in presence of ATP by microplate reader assay relative to control
Numbers only, in %.

Illustrative cases are given below, each with its answer.
MOLECULE: O=C(CNc1ncnc2[nH]cc(C(=O)c3ccc(Oc4ccccc4)cc3Cl)c12)NCCOCCOCCOCCOCCOCCOCCOCCNc1cccc2c1C(=O)N(C1CCC(=O)NC1=O)C2=O (stereo not given)
inhibition, %: 7
--
MOLECULE: O=C(CNc1ncnc2[nH]cc(C(=O)c3ccc(Oc4ccccc4)cc3Cl)c12)NCCCCNc1cccc2c1C(=O)N(C1CCC(=O)NC1=O)C2=O (stereo not given)
inhibition, %: 1.8

Go through the items and report each one's inhibition.
1. O=C(CNc1ncnc2[nH]cc(C(=O)c3ccc(Oc4ccccc4)cc3Cl)c12)NCCNc1cccc2c1C(=O)N(C1CCC(=O)NC1=O)C2=O (stereo not given)
2. O=C(CNc1ncnc2[nH]cc(C(=O)c3ccc(Oc4ccccc4)cc3Cl)c12)NCCOCCOCCOCCOCCOCCOCCNc1cccc2c1C(=O)N(C1CCC(=O)NC1=O)C2=O (stereo not given)
3. O=C1CCC(N2C(=O)c3cccc(NCCOCCOCCOCCOCCOCCNC(=O)N[C@H]4CC[C@@H](Nc5ncnc6[nH]cc(C(=O)c7ccc(Oc8ccccc8)cc7Cl)c56)CC4)c3C2=O)C(=O)N1 (stereo not given in full)

Completion:
1: 2.4; 2: 10; 3: 58.4
